OBSERVED_PROPERTY: melting point

// known answers, use as guide
[[record]]
compound = "CCOCC(O)COc1ccc(NC(=O)CCS(C)(=O)=O)cc1 (stereo unspecified)"
observed_property = "melting point"
measured_value = "111 to 112 °C"

[[record]]
compound = "CCCCCCCCON1C(C)(C)CC(NC(=O)CCc2cc(-n3nc4ccccc4n3)c(O)c(C(C)(C)C)c2)CC1(C)C"
observed_property = "melting point"
measured_value = "153 to 159 °C"

[[record]]
compound = "CNC(=S)C1(c2cccc(C)n2)CCCCS1=O (stereo unspecified)"
observed_property = "melting point"
measured_value = "234 °C"

[[record]]
compound = "CCOCc1nc2c(N)nc3ccccc3c2n1CCCC(C)N(OC)S(C)(=O)=O (stereo unspecified)"
observed_property = "melting point"
measured_value = "146 to 148 °C"

[[record]]
compound = "CN1CCn2nc(Nc3cc(Cl)nn(COCC[Si](C)(C)C)c3=O)cc2C1"
observed_property = "melting point"
measured_value = "68 to 69 °C"

[[record]]
compound = "Cc1nc(-c2cc(C(N)=O)c(=O)[nH]c2C)cs1"
observed_property = "melting point"
measured_value = "> 300 °C"

[[record]]
compound = "COc1ccc(C2=NN(Cc3ccc(C(=O)O)cc3)C(=O)[C@H]3CC=CC[C@@H]23)cc1OC (relative stereo)"
observed_property = "melting point"
measured_value = "192 to 193 °C"

[[record]]
compound = "COC(=O)C(Cl)=NNc1ccc(F)cc1"
observed_property = "melting point"
measured_value = "110 to 113 °C"


Entry `COc1cc(N)c([N+](=O)[O-])cc1C(F)(F)F` : reported melting point = ?
56 °C

State the recorded melting point for this entry: CCCCCC(C)C(C)c1cc(O)c2c3c(c(=O)oc2c1)SCC3 (stereo unspecified)
165 to 166 °C

Record request: melting point value, item `C[C@@H]1COC2(CCCC2)N1C(=O)c1ccccc1`
65.5 to 67.5 °C

Entry COCC(C)n1nc(-c2c(-c3ccccc3)nn3ccc(OC)cc23)ccc1=O (stereo unspecified) has what melting point?
138 to 139 °C

I am curious: what melting point value has been reported for `CCCc1ccc(-c2nc(-c3ccccc3Cl)nn2C)c(Cl)c1` ?
70 to 72 °C

Hello, the source for this data is a melting point compilation (Tetko et al.; mined from patent text by program, amines drawn as free bases though some values may be those of a salt), in case you need it.
